Test: Evaluation of oral absorbability
Type: in vivo, BALB/cA mice
Settings: mouse; plasma, oral 50 mg/kg/day, BALB/cA mice
test_readout: AUC(0-t) (µM·h)
Report only the number, with the unit µM·h understood.

Example results:
1. C=CC(=O)N1C[C@H](n2c(C#CC)c(C(=O)N[C@H](C)c3ccc(F)cc3F)c3c(N)ncnc32)C[C@@H]1C ... 15
2. C=CC(=O)N1C[C@H](n2c(C#CC)c(C(=O)N[C@H](C)c3ccccc3)c3c(N)ncnc32)C[C@@H]1C ... 15
3. C=CC(=O)N1C[C@H](n2c(C#CC)c(C(=O)N[C@@H](c3ccccc3)C(F)(F)F)c3c(N)ncnc32)C[C@@H]1C ... 15
4. C=CC(=O)N1C[C@H](n2c(C#CC)c(C(=O)N[C@H](CC)c3ccccc3)c3c(N)ncnc32)C[C@@H]1C ... 12
5. C=CC(=O)N1C[C@H](n2c(C#CC)c(C(=O)N[C@H](C)c3cccc(Cl)c3)c3c(N)ncnc32)C[C@@H]1C ... 17

For the next question, use this compound.
Endpoint output: AUC(0-t) of C=CC(=O)N1C[C@H](n2c(C#CC)c(C(=O)NC(C)(C)c3ccccc3)c3c(N)ncnc32)C[C@@H]1C . Value?
24

* * *

Target: Ba/F3-HER2insYVMA cells (Homo sapiens, UniProt P04626, DUP772-775, cells depend on it)
Sequence (P04626 with tags, fused parts or gaps DUP772-775): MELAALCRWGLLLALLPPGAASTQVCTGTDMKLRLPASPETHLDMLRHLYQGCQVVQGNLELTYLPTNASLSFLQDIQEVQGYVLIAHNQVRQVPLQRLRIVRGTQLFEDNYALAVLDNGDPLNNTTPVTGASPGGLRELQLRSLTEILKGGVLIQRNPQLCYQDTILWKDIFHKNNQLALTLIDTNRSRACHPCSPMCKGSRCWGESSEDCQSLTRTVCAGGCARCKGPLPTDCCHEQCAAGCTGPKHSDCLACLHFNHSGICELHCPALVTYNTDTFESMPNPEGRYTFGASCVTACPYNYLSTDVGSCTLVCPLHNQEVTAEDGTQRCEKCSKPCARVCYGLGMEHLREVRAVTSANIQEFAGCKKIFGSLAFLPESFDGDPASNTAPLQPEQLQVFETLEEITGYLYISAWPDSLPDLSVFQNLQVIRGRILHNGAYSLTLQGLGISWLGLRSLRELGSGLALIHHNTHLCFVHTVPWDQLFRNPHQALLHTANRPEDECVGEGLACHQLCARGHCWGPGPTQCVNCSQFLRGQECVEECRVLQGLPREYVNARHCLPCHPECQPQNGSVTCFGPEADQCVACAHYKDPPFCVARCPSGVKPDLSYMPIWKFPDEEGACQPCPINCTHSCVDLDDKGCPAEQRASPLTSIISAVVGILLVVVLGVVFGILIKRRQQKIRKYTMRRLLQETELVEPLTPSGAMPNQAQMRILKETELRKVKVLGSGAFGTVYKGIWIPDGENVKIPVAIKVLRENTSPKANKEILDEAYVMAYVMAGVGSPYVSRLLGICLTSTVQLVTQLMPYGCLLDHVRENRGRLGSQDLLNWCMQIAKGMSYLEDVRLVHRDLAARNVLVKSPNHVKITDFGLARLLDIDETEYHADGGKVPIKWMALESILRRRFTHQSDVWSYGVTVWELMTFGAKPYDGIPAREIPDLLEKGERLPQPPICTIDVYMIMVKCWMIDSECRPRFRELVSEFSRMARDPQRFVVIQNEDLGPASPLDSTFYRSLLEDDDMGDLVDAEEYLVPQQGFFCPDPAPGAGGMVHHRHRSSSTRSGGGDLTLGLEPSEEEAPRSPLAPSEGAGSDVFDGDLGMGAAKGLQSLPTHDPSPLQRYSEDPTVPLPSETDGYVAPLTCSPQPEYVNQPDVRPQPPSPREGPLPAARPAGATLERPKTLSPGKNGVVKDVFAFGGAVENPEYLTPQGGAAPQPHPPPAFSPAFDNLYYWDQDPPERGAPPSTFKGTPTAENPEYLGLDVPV
Assay: Growth inhibitory activity against HER2 exon 20 insertion mutant expressing cell line
Assay type: cell-based, mouse
Conditions: 3 days, CellTiter-Glo 2.0, read-out: HER2ex20insYVMA cell growth inhibitory activity IC50 value
// values below are reported GI50
Report only the number, with the unit µM understood.

Endpoint output: GI50 of CC#Cc1c(C(=O)N[C@H](C)c2ccccc2)c2c(N)ncnc2n1[C@@H]1C[C@H](C)N(C(=O)/C=C/C)C1 [Comp. Ex. 6] . Value?
4.1

Endpoint output: GI50 of C=CC(=O)N1C[C@H](n2c(C#CC3CC3)c(C(=O)N[C@H](C)c3ccccc3)c3c(N)ncnc32)C[C@@H]1C [Example 11] . Value?
0.029

Endpoint output: GI50 of C=CC(=O)N1C[C@H](n2c(C#CC)c(C(=O)NC(C)(C)c3ccccc3F)c3c(N)ncnc32)C[C@@H]1C [Example 5] . Value?
0.014

* * *

Assay: Evaluation of brain penetration properties
Type: in vivo, BALB/cA mice
Conditions: mouse, plasma; 0.5 hours after oral 50 mg/kg/day, BALB/cA mice; read-out: Compound concentration in plasma
Labelling field: enter 1 (yes) if recorded concentration at 0.5 h is less than 10 µM. Enter 0 (no) if it equals or exceeds that cut-off.

Please review the entries below; each comes with its answer.
1. C=CC(=O)N1C[C@H](n2c(C#CC3CC3)c(C(=O)N[C@H](C)c3ccccc3)c3c(N)ncnc32)C[C@@H]1COC ... 1 (yes)
2. C=CC(=O)N1C[C@H](n2c(C#CC3CC3)c(C(=O)N[C@H](C)c3ccccc3)c3c(N)ncnc32)C[C@@H]1C ... 0 (no)
3. C=CC(=O)N1C[C@H](n2c(C#CC)c(C(=O)N[C@H](C)c3ccccc3)c3c(N)ncnc32)C[C@@H]1CC ... 0 (no)
4. C=CC(=O)N1C[C@H](n2c(C#CC)c(C(=O)N[C@H](C)c3cc(F)cc(F)c3)c3c(N)ncnc32)C[C@@H]1C ... 1 (yes)

Consider now this further compound.
Find out if reported concentration at 0.5 h for C=CC(=O)N1C[C@H](n2nc(C(=O)Nc3ccc(CC(=O)N(C)C)c(C)c3C)c3c(N)ncnc32)C[C@@H]1C [Comp. Ex. 2, reference compound] is less than 10 µM
1 (yes)
